system: BrainSpheres; assay: Cytotoxicity evaluation, resazurin assay (BrainSphere.Cyto); assay type: cell-based, human; details: tcplfit2 BMD at benchmark response (1.349*SD of baseline controls)
Classify as follows. Reported BMD BrainSphere.Cyto greater than or equal to 80 µM: TRUE. Reported BMD BrainSphere.Cyto below: FALSE.

>  <Molecule>
CC(C)(c1ccc(O)cc1)c1ccc(O)cc1 [Bisphenol A]

>  <Class Label>
TRUE

$$$$
>  <Molecule>
[CH3][Hg][Cl] [Methylmercury]

>  <Class Label>
FALSE

$$$$
>  <Molecule>
CC1(C)[C@H](C(=O)O[C@H](C#N)c2cccc(Oc3ccccc3)c2)[C@@H]1C=C(Br)Br [Deltamethrin]

>  <Class Label>
TRUE

$$$$
>  <Molecule>
CC1(C)S[C@@H]2[C@H](NC(=O)[C@H](N)c3ccc(O)cc3)C(=O)N2[C@H]1C(=O)O [Amoxicillin]

>  <Class Label>
TRUE

$$$$
>  <Molecule>
ClC1=C(Cl)[C@]2(Cl)[C@@H]3[C@@H]4C[C@@H]([C@H]5O[C@@H]45)[C@@H]3[C@@]1(Cl)C2(Cl)Cl [Dieldrin]

>  <Class Label>
TRUE

$$$$

Now let's try a different one.
Ask: Reported BMD BrainSphere.Cyto at or above 80 µM? C/C(=C/C=C/[C@@H](C)C(=O)O)[C@H]1CN[C@H](C(=O)O)[C@H]1CC(=O)O [Domoic acid]
Reply: FALSE
